# credit: PubChem BioAssay (NCI)

- System: MOLT-4 leukemia
- Measurement Description: NCI tumour cell line growth inhibition, 48 h
Parameter: TGI

# Compound, Result
records = [
    ("Cc1nc(Nc2ccc(Cl)cc2)sc1C(=O)Nc1cccc2c(=O)[nH][nH]c(=O)c12", "50.4 µM"),
    ("C/C(N=NS(=O)(=O)c1c(C)cc(C)cc1C)=C1\\C=CC=CN1O", "> 100 µM"),
    ("O=C(O)C12C=CC(C1)c1ccccc12 (configuration not stated)", "> 100 µM"),
    ("N#Cc1nc(CN2C(=O)c3ccccc3C2=O)oc1N", "> 100 µM"),
    ("COC1OC(C)/C(=N/O)C2OC(C)(C)OC12 (configuration not stated)", "> 100 µM"),
    ("Cc1nc(C(=O)OCc2ccccc2)cc(OCc2ccccc2)c1C", "7.53 µM"),
]

Consider the record given below.
Consider the compound shown here: COC1CCC(CO)OO1 (configuration not stated) What is its recorded TGI? > 100 µM

====

- Tested on: HCT-116 colon
- Measurement Description: NCI tumour cell line growth inhibition, 48 h
Parameter: TGI

Solved entries:
# Compound, Result
data = [
    ("COc1ccc(/C=C(\\C#N)c2cc(OC)c(OC)c(OC)c2)cc1", "> 100 µM"),
    ("COc1c2c(c(O)c3c4c(c(C)cc13)C1OC3(C(OC)OC5CC(C)(O)C(OC6CC(C)(O)C(O)C(C)O6)C(C)O5)OC1C(OC)(O4)C31CO1)C(=O)C(O)CC2OC1CC(C)(O)C(OC(C)=O)C(C)O1 (centres undefined)", "5.74 µM"),
    ("C=CC(C)(C)/C(=C\\CO[Si](C(C)C)(C(C)C)C(C)C)C(=O)N(C)c1ccccc1I", "17 µM"),
    ("Cc1cc2ccccc2n2c1nc1ccc(O)cc12", "> 10 µM"),
    ("O=C(NNC(=O)c1ccncc1)C(=O)Nc1cc(Cl)c(Cl)cc1Cl", "> 100 µM"),
    ("COC(=O)CCCc1nc2ccccc2nc1N=Nc1ccccc1", "> 100 µM"),
    ("C=CCCCN(C(=O)c1ccccc1)c1ccc(C(=O)OC)o1", "> 100 µM"),
    ("Cc1cc2ccccc2oc(=O)/c1=N\\Nc1ccccc1", "> 100 µM"),
]

Consider the record given below.
Consider the compound shown here: `COc1ccc(-c2c(/C=N/OCC(=O)O)c3sc4ccccc4n3c2/C=N/OCC(=O)O)cc1` What is its recorded TGI? > 50 µM

====

- System: OVCAR-5 ovarian
- Measurement Description: NCI tumour cell line growth inhibition, 48 h
Reported TGI is given for each of the following compounds.

Solved entries:
# Compound, TGI
data = [
    ("CCOC(=O)c1sc(NC(=O)COc2ccc(/C=C3\\CCc4cc(OC)ccc4C3=O)cc2)nc1C", "24.6 µM"),
    ("CC(C)C(Br)C(=O)NCC(=O)O (configuration not stated)", "> 100 µM"),
    ("N/C(=N\\N=C/c1c(O)cc(O)cc1O)NO", "> 100 µM"),
    ("CCOC(=O)C(Cc1cc(OC)c(CC(C(=O)OCC)C(=O)OCC)cc1OC)C(=O)OCC", "> 100 µM"),
    ("COc1cc(C2CC(c3ccc(Cl)cc3)=NN2C(C)=O)ccc1Oc1ccnc2cc(Cl)ccc12 (configuration not stated)", "> 100 µM"),
]

Consider the compound shown here: `CCOC1=C/C(=N\Nc2ccc([N+](=O)[O-])cc2)CCC1` What is its recorded TGI? > 100 µM

Consider the compound shown here: `COc1ccc2c(CN3CCCC[C@H]3O)cc3cc4c(cc3c2c1)OCO4` What is its recorded TGI? 14.1 µM

Consider the compound shown here: `COc1ccc(C(=O)c2ccccc2)c(O)c1` What is its recorded TGI? > 100 µM

Consider the compound shown here: Nc1ccccc1SC(/C=C/NNC1=NC(c2ccccc2)C(c2ccccc2)=NN1)c1ccccc1 (configuration not stated) What is its recorded TGI? 37.1 µM

Consider the compound shown here: `C=C(CN1CCN(c2ccccn2)CC1)c1ccc(C(=O)Nc2ccccc2N)cc1` What is its recorded TGI? 26.4 µM

Consider the compound shown here: `O=C(NNC(=O)c1ccc(Cl)cc1NC(=O)C12CC3CC(CC(C3)C1)C2)c1ccc(Cl)cc1` What is its recorded TGI? 74.4 µM

Consider the compound shown here: `CSCc1ncc(-c2ccc(C(F)(F)F)cc2)c(NC2CCCCCC2)n1` What is its recorded TGI? > 10 µM

Consider the compound shown here: `CN(C)Cc1cc(/C=C/C(=O)c2ccc(Br)cc2)cc(CN(C)C)c1O` What is its recorded TGI? > 100 µM

Consider the compound shown here: `COc1cccc(C=NC23CC4CC(CC(C4)C2)C3)c1` What is its recorded TGI? > 100 µM

Consider the compound shown here: `Fc1ccc(-c2ncn(C3CCNCC3)c2-c2ccnc(Oc3ccc(Cl)cc3)n2)cc1` What is its recorded TGI? 14.9 µM

Consider the compound shown here: C[C@@H]1CC2(C[C@@H](C)C3[C@@H](CC4(C)CCCC5C6=CC(O)(CC[C@]34C)OC6=CC(=O)OC5(C)C)O2)OC1=O (some centres not stated) What is its recorded TGI? > 100 µM

Consider the compound shown here: `O=C(C#Cc1ccccc1)NC/C=C/c1ccccc1` What is its recorded TGI? > 100 µM

Consider the compound shown here: `CC1=NN(c2ccccc2)C(=O)/C1=C\c1c(C)[nH]n(-c2ccccc2)c1=O` What is its recorded TGI? > 100 µM

Consider the compound shown here: `CSC(=S)NCc1cn(C)c2ccccc12` What is its recorded TGI? > 100 µM

Consider the compound shown here: `Cc1c(C(=O)O)sc2nc[nH]c(=O)c12` What is its recorded TGI? > 100 µM

Consider the compound shown here: `CCSc1c2ccccc2nc2c(OC)ccc(OC)c12` What is its recorded TGI? 97.1 µM
